Values from ChEMBL document CHEMBL1201862

test system: 786-0; assay: NCI tumour cell line growth inhibition, 48 h
Active and inactive are the calls of the source. No stated cut-off is given here; in the data, active = GI50 up to about 1.1 µM and inactive = higher.
observation-type: GI50

The examples below pair each entry with its known result.
1. N#C/C(=C\c1cc(Br)c(O)c(Br)c1)c1cccnc1 : 10.1 µM (inactive)
2. Cc1cc(N(CCC#N)CCC#N)ccc1/C=C(\NC(=O)/C=C/c1ccccc1)NC(=O)Nc1ccccc1C : 26.8 µM (inactive)
3. CC1=C(C(=O)CC(=O)C(=O)Nc2ccccc2)Sc2ccccc2N1 : > 100 µM (inactive)
4. CCC(=C(c1ccc(OCc2ccccc2)cc1)c1ccc(OCc2ccccc2)cc1)c1ccc(OC)cc1 : > 100 µM (inactive)
5. CCCCCC(=O)OCC(=O)[C@H]1[C@H](C)C[C@H]2[C@@H]3C[C@H](F)C4=C/C(=N/OC(=O)c5cccc6c(=O)c7ccccc7[nH]c56)C=C[C@]4(C)[C@H]3[C@@H](O)C[C@@]21C : 48.3 µM (inactive)

// input: 3 compounds below; output: GI50 for each
1. CCCc1onc(CCC(=O)N(Cc2ccccc2)Cc2ccccc2)c1CC
2. N#CCCN(CCC#N)c1ccc(C(=N/c2ccc(F)cc2)/N=N/c2ccccc2)cc1
3. O=C1CC(=O)NC(NN2C(=O)/C(=C/c3ccc(Cl)cc3)N=C2c2ccccc2)=N1

Out:
1: > 100 µM (inactive); 2: > 100 µM (inactive); 3: 17 µM (inactive)

* * *

tested on: SR; test: NCI tumour cell line growth inhibition, 48 h
Active and inactive are the calls of the source. Cut-off read from the data, not from the text of the source: active = GI50 up to about 1.1 µM and inactive = higher.
Parameter call: string, one of 1 (yes) (active), 0 (no) (inactive)

A selection of reference data follows.
1) Cc1c2ccccc2c(C)n2c1nc1cc3ccccc3cc12 : 1 (yes)
2) Brc1ccc(-c2cn3ccncc3n2)cc1 : 0 (no)
3) COc1ccc(-c2cc(-c3ccccc3)c(C#N)c(=O)[nH]2)cc1 : 0 (no)
4) COc1ccc2c(c1)-c1nc(=S)n(CCN(C)C)c3ccc([N+](=O)[O-])c(c13)N2 : 1 (yes)
5) COc1ccc2c(c1OC)C(=O)O[C@@H]2[C@H]1c2cc3c(cc2CCN1C)OCO3 : 0 (no)

We next turn to a different compound, shown below.
In: Returns: the outcome recorded for BrC1(c2ccccc2)C[n+]2c(-c3ccccc3)cc(-c3ccccc3)cc2-c2ccccc21 (stereo unspecified) in this assay.
Out: 1 (yes)

* * *

tested on: RXF 393; experiment: NCI tumour cell line growth inhibition, 48 h
Active and inactive are the calls of the source. Cut-off read from the data, not from the text of the source: active = GI50 up to about 1.1 µM and inactive = higher.
Parameter call: string, one of active, inactive

A selection of reference data follows.
1) CCOC(=O)c1cnccc1CC1(C#N)c2ccccc2C=CN1C(=O)c1ccccc1 (stereo not given) : inactive
2) CN(CCCCN(C)CCc1ccc(Cl)c(Cl)c1)CCCCN1CCCC1 : inactive
3) N#[N+]c1cc2c(cc1Br)-c1ccccc1C2 : inactive
4) COc1ccc2c(c1)-c1c(c3cc(OC)ccc3n1CCCN(C)C)CC2 : inactive

In: Returns: the outcome recorded for CCCCOC(=O)NC(c1ccccc1)C(O)C(=O)OC1C[C@@]2(O)C(OC(=O)c3ccccc3)C3[C@](C)(C(=O)[C@H](OC(C)=O)C(=C1C)C2(C)C)[C@@H](O)C[C@H]1OC[C@@]31OC(C)=O (stereo not given in full) in this assay.
Out: active

In: Returns: the outcome recorded for COC(=O)CCc1ccc(CCC(=O)OC)cc1 in this assay.
Out: inactive

In: Returns: the outcome recorded for COc1cc2c3c(n(C)c(=O)c2cc1OC)-c1cc2c(cc1/C3=C\CCCI)OCO2 in this assay.
Out: inactive
